# test: NCI Yeast Anticancer Drug Screen. Data for the rad50 strain (AID 155);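 note: 0% = growth of vehicle-only cultures of the same strain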
# test.parameters: S. cerevisiae rad50 strain growth inhibition; at 50.0 µM; stronger effect = higher value
The panel holds about 79,000 compounds, 15% with a hit somewhere; the sample as a whole holds those more often.

# compound, growth inhibition / %
rows = [
    ("CC1=CC2C3C(=O)OC(=O)C3C1C(Cc1ccccc1)N2C (stereo not given)", 14.5),
    ("CCc1ccccc1NC(=S)NC1CCCCC1", -2.7),
    ("COC(=O)/C=C(\\C)CC/C=C(\\C)CCC1OC1(C)C (stereo not given)", 11.9),
    ("CCOC(=O)CCc1c(C)c2c(OC(C)=O)cc(OC(C)=O)cc2oc1=O", 31.6),
    ("CS(=O)(=O)OC1COCC1OS(C)(=O)=O (stereo not given)", 8),
    ("Cc1onc(-c2ccc(-c3noc(C)c3C(=O)O)cc2)c1C(=O)O", -1.9),
    ("NCC(N)=O", -1.6),
    ("CN(CC(=O)O)c1ccc([N+](=O)[O-])cc1[N+](=O)[O-]", 8.75),
    ("O=[N+]([O-])c1ccc2c(c1)C(O)c1ccccc1-2 (stereo not given)", 35.6),
    ("CCC(C)C(N)C1=NC(C(=O)NC(CC(C)C)C(=O)NC(CCC(=O)O)C(=O)NC(C(=O)NC2CCCCNC(=O)C(CC(N)=O)NC(=O)C(CC(=O)O)NC(=O)C(Cc3cnc[nH]3)NC(=O)C(Cc3ccccc3)NC(=O)C(C(C)CC)NC(=O)C(CCCN)NC2=O)C(C)CC)CS1 (stereo not given)", 12.9),
]
